Test system: NCI-H226 lung
Test: NCI-60 one-dose screen, 48 h
Conditions: 10 µM unless noted
The panel holds about 83,000 compounds, 20% with a hit somewhere; the sample as a whole holds those more often. Calls of active or inactive are those of the source. The calls were made as follows: active = growth percent below 10; inactive = the rest.
Labels: class 1 = active, class 0 = inactive

compound=Cc1nc2ccc(Cl)cn2c1-c1nnc(SCc2ccc([N+](=O)[O-])cc2)o1 classname="class 0"
compound=CCOC(=O)c1ccc2c(c1)ncn2-c1ccc(NC(=O)Nc2cccc(C)c2)cc1 classname="class 0"
compound=Cc1cc2nc3c4cccc(O)c4n(CCN(C)C)c3nc2cc1C classname="class 0"
compound=O=C(/C(=C/c1ccc([N+](=O)[O-])cc1)SCc1ccc(F)cc1)c1ccc(F)cc1 classname="class 0"
compound="O=C(c1nc2ccccc2[nH]1)C1C(c2ccc(Cl)cc2)C2CC3CCCC[C@H]3N2[C@@]12C(=O)Nc1cc(Cl)ccc12 (some centres undefined)" classname="class 0"
compound=COc1cc(/C=C\c2cc(OC)c(OC)c(OC)c2)cc(NC(=O)/C=C/c2cc(OC)c(OC)c(OC)c2)c1OC classname="class 0"
compound=CC/C(=C\c1ccc(OC)cc1)C(=O)c1ccc(OC)cc1 classname="class 0"
compound=COc1cc(/C=C/C(=O)c2nc3cc(F)ccc3nc2C)cc(OC)c1OC classname="class 0"
compound=Cc1nn(-c2ccccc2)c(Cl)c1/C=C/C(=O)c1ccc(F)cc1 classname="class 0"
compound="CCSCC1CC(O)(c2ccccc2)CC(c2ccc(F)cc2)O1 (centres undefined)" classname="class 0"
compound="OC(c1cccc(C(F)(F)F)c1)c1cnccc1NC1CCCCC1 (centres undefined)" classname="class 0"
compound=CC(=O)O[C@H]1Cc2c([nH]c3ccccc23)[C@@H](c2ccc(Cl)cc2)N1C(=O)CCNC(C)(C)C classname="class 0"
compound=Cn1cc(-c2nc(-c3c[nH]c4c(Cl)nccc34)cs2)c2cc(F)ccc21 classname="class 0"
compound=Cc1cnc(C(=O)Nc2nc3ccc(S(=O)(=O)Nc4ccc(C5(C(F)(F)F)CC5)cc4)cc3[nH]2)cn1 classname="class 0"
compound=COc1ccc2[nH]c(=O)c(CN3CCN(c4nccc(-c5ccc(Cl)cc5)n4)CC3)cc2c1 classname="class 0"
compound=CCOC(=O)c1cc(C(=O)c2cc(OC)cc(OC)c2)n2ccc3ccccc3c12 classname="class 0"
compound=COc1cc(/C=N/O)nc(-c2ccccn2)c1 classname="class 0"
compound=Cc1ccccc1NS(=O)(=O)c1cccc(C(=O)Nc2ccc(Br)cc2)c1 classname="class 0"
compound=O=C(CSc1nc2ccccc2[nH]1)NCc1ccccc1 classname="class 0"
compound=Cn1cc(-c2csc(-c3c[nH]c4ccccc34)n2)c2ccnc(Cl)c21 classname="class 0"
compound=CCCCCC(=O)Oc1ccc(/C(=C(\C)c2ccccc2)c2ccc(OCCN3CCCCC3)cc2)cc1 classname="class 0"
compound="NS(=O)(=O)c1ccc(CCN2C(=O)C3C(C2=O)C2(Cl)C(Cl)=C(Cl)C3(Cl)C2(Cl)Cl)cc1 (centres undefined)" classname="class 0"
compound=COc1ccc(C(=O)c2cc(OC)c(OC)c(OC)c2)cc1O classname="class 0"
compound=N#Cc1c(-c2cccc([N+](=O)[O-])c2)nc(SCC(=O)c2ccc(Cl)cc2)[nH]c1=O classname="class 0"
compound=O=S(=O)(NCCNc1nccc(-c2c(-c3cccc(O)c3)nc3occn23)n1)c1ccccc1 classname="class 0"
compound=C=CC(=O)N[C@@H](/C=C/C(=O)OCC)Cc1ccc(-c2cc(Cl)cc(Cl)c2)cc1 classname="class 0"
compound=COc1cc2nc(-c3ccc(Cl)cc3)cc(OCCCN3CCCC3)c2cc1OC classname="class 1"
compound=COC(=O)c1ccc2c(c1)[n+](=O)c(C(C)=O)c(C(F)(F)F)n2[O-] classname="class 1"
compound=CC(C)(C)c1ccc(NS(=O)(=O)c2ccc3nc(NC(=O)c4cnccn4)[nH]c3c2)cc1 classname="class 0"
compound=COc1ccc2c(c1)oc1c(C)c3c(c(C)c12)C(=O)N(N)C3=O classname="class 1"
compound=O=C1Nc2cc(-c3ccc(NS(=O)(=O)c4ccccc4)cc3)ccc2/C1=C/c1ccc[nH]1 classname="class 0"
compound=Fc1ccc2c(-c3cncn3CCc3ccccc3)c[nH]c2c1 classname="class 0"
compound="N#CC1=C(/N=C/c2ccccc2)Oc2c(ccc3ccccc23)C1c1ccc([N+](=O)[O-])cc1 (centres undefined)" classname="class 0"
compound="COc1ccc(C(=O)Nc2cccc(C3CCc4c(cc(OC)c(OC)c4OC)O3)c2)cc1 (centres undefined)" classname="class 0"
compound="N#CC1C(C#N)C2c3ccccc3C=CN2C1C(=O)c1ccc(Br)cc1 (centres undefined)" classname="class 0"
compound=COc1cc2c(c(O)c1Cl)C(=O)c1c(O)cc(C[C@H](C)O)cc1[C@H]2[C@H]1c2cc(C[C@H](C)O)cc(O)c2C(=O)c2c1cc(OC)c(Cl)c2O classname="class 0"
compound=CCCC/C=N/NC(=S)NCc1ccccc1 classname="class 0"
compound=O=C1c2cccc3c(-c4ccc5c(c4)ncn5C4CCCCC4)ccc(c23)C(=O)N1c1nc2ccccc2s1 classname="class 0"
compound=O=C(NO)c1ccc(-n2nc(-c3ccccc3)c3ccccc32)cc1 classname="class 0"
